# tested_on: 229E Mpro (Human coronavirus 229E, UniProt P0C6X1)
# Construct: 229E Mpro
# Sequence (P0C6X1 2966-3267): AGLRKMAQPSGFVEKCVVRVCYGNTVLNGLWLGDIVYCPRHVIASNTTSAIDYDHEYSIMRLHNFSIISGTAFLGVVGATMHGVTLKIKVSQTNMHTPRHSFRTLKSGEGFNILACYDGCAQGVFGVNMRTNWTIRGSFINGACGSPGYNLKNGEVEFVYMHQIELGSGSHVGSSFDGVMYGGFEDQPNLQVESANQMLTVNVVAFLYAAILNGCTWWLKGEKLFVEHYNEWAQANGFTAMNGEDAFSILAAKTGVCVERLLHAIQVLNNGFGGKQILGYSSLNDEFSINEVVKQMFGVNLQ
# measurement_description: 229E Mpro assay (Table 3)
# Assay type: biochemical, HCoV 229E
# reported_conditions: read-out: 229E Mpro EC50
pEC50: −log10 of the molar value.
measured_attribute: pEC50

| compound | result |
| --- | --- |
| N#C[C@H](C[C@@H]1CCNC1=O)NC(=O)[C@@H]1CS[C@H]2CC[C@H](NCC(F)(F)F)C(=O)N21 | < 4.52 |
| COc1cccc2[nH]c(C(=O)N[C@@H](CC3CC3)C(=O)N[C@H](C#N)C[C@@H]3CCCNC3=O)cc12 (single isomer, unassigned) [271A (Isomer 1)] | < 4.52 |
| COc1cccc2[nH]c(C(=O)N[C@H](CC3CC3)C(=O)N[C@H](C#N)C[C@@H]3CCCNC3=O)cc12 (single isomer, unassigned; isomer 2) [491A (Isomer 2)] | > 5.70 |
| COc1cc(Cl)c2[nH]c(C(=O)N3CC4(CCCCC4)CC3C(=O)N[C@H](C#N)C[C@@H]3CCNC3=O)cc2c1 (single isomer, unassigned) [896 (Isomer 1)] | > 5.70 |
| CC1(C)CC(C[C@@H](C#N)NC(=O)[C@H](CC2CC2)NC(=O)c2cc3cccc(Cl)c3[nH]2)C(=O)N1 (single isomer, unassigned) [1053 (Isomer 2)] | 4.52 to 5.00 |
